- PROCEDURE_TEXT: chemical genetic growth profiling, strain panel (AID 1159580);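 further: tested at 20 µM; growth read once vehicle control cultures reached saturation at 30 °C; 1 = growth at the plate median or of vehicle wells; lower values mean less growth of the strain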
- STATED_CONDITIONS: S. cerevisiae deletion strains, growth OD, locus YML124C, strain tub3, active compounds read low
The whole screen tested about 5,500 compounds, of which about 2,000 (36%) were called active. About 18% were inconclusive and are not listed. The list shows a part of the results.
MEASUREMENT_KIND: normalized growth

Lookup: Note normalized growth for the molecule shown: COc1cccc2c(C)cc(=O)[nH]c12
Found: 0.952 (inactive)

Lookup: Note normalized growth for the molecule shown: COc1ccc2c3c1OC1C(O)CC=C4C(C2)N(C)CCC431 (stereo not given)
Found: 1.02 (inactive)

Lookup: Note normalized growth for the molecule shown: CC(=O)OCC1=C(C(=O)O)N2C(=O)[C@@H](NC(=O)Cc3cccs3)[C@H]2SC1
Found: 0.985 (inactive)

Lookup: Note normalized growth for the molecule shown: NC(=O)c1ncn([C@@H]2O[C@H](CO)[C@@H](O)[C@H]2O)n1
Found: 0.985 (inactive)

Lookup: Note normalized growth for the molecule shown: C=C[C@H]1CN2CC[C@H]1C[C@@H]2[C@@H](OC(=O)OCC)c1ccnc2ccc(OC)cc12
Found: 1.02 (inactive)

====

Quick list: normalized growth per entry.
- PROCEDURE_TEXT: chemical genetic growth profiling, strain panel (AID 1159580);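 further: tested at 20 µM; growth read once vehicle control cultures reached saturation at 30 °C; 1 = growth at the plate median or of vehicle wells; lower values mean less growth of the strain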
- STATED_CONDITIONS: S. cerevisiae deletion strains, growth OD, locus YOR069W, strain VPS5, active compounds read low
The whole screen tested about 5,500 compounds, of which about 2,000 (36%) were called active. Another 18% or so got no clear call; they are omitted. Some of the results follow.
Kindly provide the number alone.

MOLECULE	MEASUREMENT_KIND	MEASURED_NUMBER
COc1ccc2ccc(=O)oc2c1	normalized growth	0.999
CC1=CC(=O)C2=C(C)CC[C@@H]3[C@H](OC(=O)[C@H]3C)[C@@H]12	normalized growth	0.986
CCc1cccc(CC)c1N(COC)C(=O)CCl	normalized growth	0.999
CC1CCC2(OC1)OC1CC3C4CC[C@H]5C[C@@H](O)CC[C@]5(C)C4CC(=O)[C@]3(C)C1C2C (some centres undefined)	normalized growth	1.01
C[C@]12CCC3c4ccc(OS(=O)(=O)O)cc4CCC3C1CC[C@H]2O (some centres undefined)	normalized growth	0.988
OCC(O)C(O)C(O)C(O)C(O)CO (centres undefined)	normalized growth	1

Lookup: Note normalized growth for the molecule shown: C[C@@H]1CC[C@@]2(OC1)O[C@H]1CC3C4CC[C@H]5C[C@@H](O)CC[C@]5(C)C4CC[C@]3(C)[C@H]1[C@@H]2C (some centres undefined)
Found: 0.983

Lookup: Note normalized growth for the molecule shown: C[C@]12CCC3c4ccc(O)cc4CCC3C1C[C@@H](O)[C@@H]2O (some centres undefined)
Found: 0.997

Lookup: Note normalized growth for the molecule shown: CC1CC[C@]2(NC1)O[C@H]1CC3C4CC[C@H]5C[C@@H](O)CC[C@]5(C)C4CC[C@]3(C)[C@H]1[C@@H]2C (some centres undefined)
Found: 0.0792

Lookup: Note normalized growth for the molecule shown: CC12CCC3c4ccc(OCc5ccccc5)cc4CCC3C1C[C@@H](O)[C@@H]2O (some centres undefined)
Found: 0.0556

Lookup: Note normalized growth for the molecule shown: NS(=O)(=O)c1cc(C2(O)NC(=O)c3ccccc32)ccc1Cl (centres undefined)
Found: 1.01

Lookup: Note normalized growth for the molecule shown: CC1CC[C@@]2(OC1)O[C@H]1CC3C4CC[C@@H]5C[C@@H](O)CC[C@]5(C)C4CC[C@]3(C)[C@H]1[C@@H]2C (some centres undefined)
Found: 1.02

Lookup: Note normalized growth for the molecule shown: CC(C)N(CCC(C(N)=O)(c1ccccc1)c1ccccn1)C(C)C (centres undefined)
Found: 0.996

Lookup: Note normalized growth for the molecule shown: COc1ccc2c(c1)CCC1C2CC[C@@]2(C)C1CC[C@@H]2O (some centres undefined)
Found: 0.968
